These entries and their values trace back to PubChem BioAssay (Tox21).

target entity: Progesterone receptor (Homo sapiens)
assay remarks: qHTS assay to identify small molecule agonists of the progesterone receptor (PR) signaling pathway (AID 1346784); further: nearly all actives have a fitted effect of over 30% in size
conditions: PR-UAS-bla HEK293T, beta-lactamase FRET ratio, 16 h; series mostly up to 92.4 µM
Inconclusive results are not listed. Active and inactive are the calls of the source. The call rests on the fitted dose curve.
Outcome codes: Y for active, N for inactive

{"compound": "C=Cc1ccc(C)cc1", "qualitative label": "N"}
{"compound": "COc1ccc(OC)cc1", "qualitative label": "N"}
{"compound": "CC(=O)OCc1ccccc1", "qualitative label": "N"}
{"compound": "C=CC(=O)OCCC(=O)O", "qualitative label": "N"}
{"compound": "CN(C)c1ccc(Cc2ccc(N(C)C)cc2)cc1", "qualitative label": "N"}
{"compound": "COC(=O)CCCC(=O)OC", "qualitative label": "N"}
{"compound": "C=CCCCCCCCCC(=O)O", "qualitative label": "N"}
{"compound": "O=C(O)Cn1c(=O)n(Cc2ccc(Br)cc2F)c(=O)c2ccc(Cl)cc21", "qualitative label": "N"}
{"compound": "C=C(C)C(=O)OCC(C)C", "qualitative label": "N"}
{"compound": "OC1C(O)C(O)C(O)C(O)C1O (stereo not given)", "qualitative label": "N"}
{"compound": "CC(=O)OCCOC(C)=O", "qualitative label": "N"}
{"compound": "OCc1ccccc1", "qualitative label": "N"}
{"compound": "CCCCCCCCCCCCCCCC(=O)OC(C)C", "qualitative label": "N"}
{"compound": "O=C(OCC1CCC2OC2C1)C1CCC2OC2C1 (stereo not given)", "qualitative label": "N"}
{"compound": "NCCNCCN", "qualitative label": "N"}
{"compound": "COCCOC(=O)c1ccccc1C(=O)OCCOC", "qualitative label": "N"}
{"compound": "CNC(=O)Oc1ccc2c(c1)[C@]1(C)CCN(C)[C@@H]1N2C", "qualitative label": "N"}
{"compound": "CCc1ccccc1CC", "qualitative label": "N"}
{"compound": "COCCCN", "qualitative label": "N"}
{"compound": "CC(=O)CCC=C(C)C", "qualitative label": "N"}
{"compound": "CC(=O)c1ccc(O)cc1", "qualitative label": "N"}
{"compound": "O=C(O)c1cc2ccccc2cc1O", "qualitative label": "N"}
{"compound": "C=C(C)[C@H]1CC=C(C)C(=O)C1", "qualitative label": "N"}
{"compound": "O=[N+]([O-])c1ccc2nc[nH]c2c1", "qualitative label": "N"}
{"compound": "O=C(O)CCCCCCCCC(=O)O", "qualitative label": "N"}
{"compound": "OCc1cccc(Oc2ccccc2)c1", "qualitative label": "N"}
{"compound": "CCNc1ccccc1", "qualitative label": "N"}
{"compound": "O=C(O)/C=C/C(=O)O", "qualitative label": "N"}
{"compound": "O=C1CCCC1", "qualitative label": "N"}
{"compound": "C[C@]12CCC(=O)C=C1CC[C@@H]1[C@@H]2[C@@H](O)C[C@@]2(C)[C@H]1CC[C@]2(O)C(=O)CO", "qualitative label": "Y"}
